experimental-target: T1, VLP2 (virus-like particles of AAV2) (AAV2, UniProt P03135 1-735; P03135 1-598; P03135 1-533)
T1 construct: Empty AAV2 capsid; background says about 60 protein molecules, VP1:VP2:VP3 = 1:1:10; Immobilised on the ELISA plate
T1 sequence (P03135 whole entry, chain 1 of 3): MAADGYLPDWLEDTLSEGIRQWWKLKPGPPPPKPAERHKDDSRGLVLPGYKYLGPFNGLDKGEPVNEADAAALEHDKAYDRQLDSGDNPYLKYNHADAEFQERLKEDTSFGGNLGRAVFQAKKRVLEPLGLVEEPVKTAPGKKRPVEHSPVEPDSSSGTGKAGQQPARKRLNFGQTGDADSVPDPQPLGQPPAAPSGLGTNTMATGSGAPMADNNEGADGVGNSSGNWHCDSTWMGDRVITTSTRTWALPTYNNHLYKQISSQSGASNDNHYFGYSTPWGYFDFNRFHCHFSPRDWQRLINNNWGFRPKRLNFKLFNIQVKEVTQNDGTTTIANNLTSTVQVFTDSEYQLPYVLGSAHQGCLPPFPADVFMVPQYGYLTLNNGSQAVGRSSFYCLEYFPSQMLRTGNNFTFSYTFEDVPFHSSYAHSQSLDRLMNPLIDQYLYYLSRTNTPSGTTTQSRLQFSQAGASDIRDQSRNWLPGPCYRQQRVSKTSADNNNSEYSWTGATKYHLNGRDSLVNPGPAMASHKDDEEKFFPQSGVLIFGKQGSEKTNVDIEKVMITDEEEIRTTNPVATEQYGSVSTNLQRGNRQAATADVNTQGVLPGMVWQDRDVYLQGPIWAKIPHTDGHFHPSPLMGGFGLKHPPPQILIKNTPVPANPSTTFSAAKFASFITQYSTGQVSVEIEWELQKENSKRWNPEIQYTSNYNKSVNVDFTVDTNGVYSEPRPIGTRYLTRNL
T1 sequence (P03135 139-735, tags left off, chain 2 of 3): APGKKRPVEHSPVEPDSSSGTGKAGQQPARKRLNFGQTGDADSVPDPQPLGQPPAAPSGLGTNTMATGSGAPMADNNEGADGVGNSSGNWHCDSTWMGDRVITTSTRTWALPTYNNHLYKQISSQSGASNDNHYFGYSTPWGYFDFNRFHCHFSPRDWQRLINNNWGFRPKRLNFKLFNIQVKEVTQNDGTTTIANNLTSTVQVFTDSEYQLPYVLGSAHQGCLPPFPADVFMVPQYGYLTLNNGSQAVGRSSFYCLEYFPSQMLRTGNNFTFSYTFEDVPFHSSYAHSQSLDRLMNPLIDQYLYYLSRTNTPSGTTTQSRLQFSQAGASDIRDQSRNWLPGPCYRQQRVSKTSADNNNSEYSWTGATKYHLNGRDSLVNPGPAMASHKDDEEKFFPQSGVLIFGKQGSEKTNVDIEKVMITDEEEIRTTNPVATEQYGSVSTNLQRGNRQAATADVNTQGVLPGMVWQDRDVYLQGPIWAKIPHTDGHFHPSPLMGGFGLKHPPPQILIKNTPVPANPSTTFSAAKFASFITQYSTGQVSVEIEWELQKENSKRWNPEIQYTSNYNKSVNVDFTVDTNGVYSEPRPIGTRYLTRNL
T1 sequence (P03135 203-735, chain 3 of 3): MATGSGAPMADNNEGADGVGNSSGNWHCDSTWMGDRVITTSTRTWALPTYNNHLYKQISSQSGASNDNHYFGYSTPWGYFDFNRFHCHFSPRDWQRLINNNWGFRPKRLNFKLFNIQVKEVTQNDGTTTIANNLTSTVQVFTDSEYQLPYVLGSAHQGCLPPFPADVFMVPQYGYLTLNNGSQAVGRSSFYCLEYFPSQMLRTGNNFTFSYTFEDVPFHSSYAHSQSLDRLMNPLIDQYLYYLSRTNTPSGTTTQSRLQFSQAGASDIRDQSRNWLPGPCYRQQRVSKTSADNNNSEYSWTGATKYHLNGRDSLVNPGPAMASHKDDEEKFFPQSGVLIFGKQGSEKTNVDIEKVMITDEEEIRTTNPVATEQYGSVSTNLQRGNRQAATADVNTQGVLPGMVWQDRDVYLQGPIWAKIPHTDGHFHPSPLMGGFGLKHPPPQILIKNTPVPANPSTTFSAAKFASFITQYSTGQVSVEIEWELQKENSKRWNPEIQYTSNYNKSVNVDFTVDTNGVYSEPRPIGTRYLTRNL
procedure-summary: ELISA on VLP2; A450 after pH 2.5 30°C 24 h / untreated
Consider the following binders; for each one, report its Residual activity [%].
Report the value in % with no unit label.

Fill in the blank: the reported Residual activity [%] of AAV-binding protein No. 47 (Asn329Tyr, Tyr377Cys, Arg406Ser) (receptor) MGSAGESVQITLPKNEVQLYAYVLQEPPKGETYTYDWQLITHPRDYSGEMEGKHSQILKLSKLTPGLCEFKVIVEGQNAHGEGYVNVTVKPEPRKNSPPIAIVSPQFQEISLPTTSTVIDGSQSTDDDKIVQYHWEELKGPLREEKISEDTAILKLSKLVPGNYTFSLTVVDSDGATNSTTANLTVNKAVDHHHHHH is ____.
34.8

What does the record list as Residual activity [%] for AAV-binding protein No. 43 (Leu321Pro, Tyr342Asn, Ala461Ser) (receptor) MGSAGESVQITPPKNEVQLNAYVLQEPPKGETNTYDWQLITHPRDYSGEMEGKHSQILKLSKLTPGLYEFKVIVEGQNAHGEGYVNVTVKPEPRKNRPPIAIVSPQFQEISLPTTSTVIDGSQSTDDDKIVQYHWEELKGPLREEKISEDTSILKLSKLVPGNYTFSLTVVDSDGATNSTTANLTVNKAVDHHHHHH ?
28.3

Requested field: Residual activity [%]. Item: AAV-binding protein No. 53 (Asp354Gly, Leu369Gln, Lys455Arg) (receptor) MGSAGESVQITLPKNEVQLNAYVLQEPPKGETYTYDWQLITHPRGYSGEMEGKHSQILKQSKLTPGLYEFKVIVEGQNAHGEGYVNVTVKPEPRKNRPPIAIVSPQFQEISLPTTSTVIDGSQSTDDDKIVQYHWEELKGPLREERISEDTAILKLSKLVPGNYTFSLTVVDSDGATNSTTANLTVNKAVDHHHHHH
13.2
